- Target desc: full-length human RORγt (GAL4-DBD-RORγt fusion) in HEK293T cells (Homo sapiens (Human), UniProt P51449)
- Sequence (P51449 other isoform, or with tags, fused parts or gaps): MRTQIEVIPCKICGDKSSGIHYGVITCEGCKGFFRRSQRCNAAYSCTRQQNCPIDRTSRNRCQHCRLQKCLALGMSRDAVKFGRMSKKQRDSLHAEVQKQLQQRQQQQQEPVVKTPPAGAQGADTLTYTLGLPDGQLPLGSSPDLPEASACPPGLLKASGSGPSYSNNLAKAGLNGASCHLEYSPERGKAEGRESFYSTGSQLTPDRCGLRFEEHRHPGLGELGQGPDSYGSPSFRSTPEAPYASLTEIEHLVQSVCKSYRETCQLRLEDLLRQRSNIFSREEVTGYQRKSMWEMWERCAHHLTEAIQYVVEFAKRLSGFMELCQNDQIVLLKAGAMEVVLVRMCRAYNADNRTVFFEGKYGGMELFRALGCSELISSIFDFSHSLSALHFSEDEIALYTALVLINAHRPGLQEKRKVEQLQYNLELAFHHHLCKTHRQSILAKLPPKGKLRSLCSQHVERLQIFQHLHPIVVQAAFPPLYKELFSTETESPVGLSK
- Assay explanation: RORγt (full-length human) reporter assay, conditions A or B
- Test settings: HEK293T cells; read-out: RORγt (FL) Reporter Assay A or B, IC50
pIC50: −log10 of the molar value.
Measured metric: pIC50

CCn1nc(C(=O)NC[C@H]2CC[C@H](S(C)(=O)=O)CC2)c(Cl)c1-c1cnc(CCCC(F)(F)F)cc1OC(F)F; 7.27
CCn1nc(C(=O)NC[C@H]2CC[C@H](S(C)(=O)=O)CC2)c(C)c1-c1cnc(CC(C)(C)C(F)(F)F)cc1C(F)F; 6.44
CCn1nc(C(=O)NC[C@H]2CC[C@H](S(=O)(=O)NC(C)=O)CC2)c(Cl)c1-c1cnc(CC(C)(C)C(F)(F)F)cc1OC(F)F; 6.37
CCn1nc(C(=O)NC[C@]2(O)CC[C@@H](S(C)(=O)=O)CC2)c(Cl)c1-c1cnc(C[C@H](C)C(F)(F)F)cc1OC(F)F (single isomer, unassigned); 7.01
CCn1nc(C(=O)NC[C@H]2CC[C@H](S(C)(=O)=O)CC2)c(Cl)c1-c1cnc(C[C@@H](C)C(F)(F)F)cc1OC(F)F (single isomer, unassigned); 7.47
CCn1nc(C(=O)NC[C@H]2CC[C@H](S(N)(=O)=O)CC2)c(C)c1-c1cnc(CC(C)(C)C(F)(F)F)cc1OC(F)F; 7.54

----------
- System: IL-17 production by human CD4+ T cells under Th17 differentiation
- Assay explanation: Human Th17 assay (IL-17 production by CD4 T cells)
- Format: cell-based
- Test settings: 72 h, IL-17 after 3 days
Measured metric: IC50 (nM)

CCn1nc(C(=O)NC[C@H]2CC[C@H](S(C)(=O)=O)CC2)c(C)c1-c1cnc(CC(C)(C)C(F)(F)F)cc1OC(F)F; 38
CCn1nc(C(=O)NC[C@H]2CC[C@H](S(C)(=O)=O)CC2)c(C)c1-c1cnc(CC(C)(C)C(F)(F)F)cc1C(F)F; 210
CCc1cc(C[C@@H](C)C(F)(F)F)ncc1-c1c(Cl)c(C(=O)NC[C@]2(O)CC[C@@H](S(C)(=O)=O)CC2)nn1CC (single isomer, unassigned); 370
CCc1cc(C[C@@H](C)C(F)(F)F)ncc1-c1c(C)c(C(=O)NC[C@H]2CC[C@H](S(C)(=O)=O)CC2)nn1CC (relative stereo); 730
CCn1nc(C(=O)NC[C@H]2CC[C@H](S(C)(=O)=O)CC2)c(Cl)c1-c1cnc(C[C@H](C)C(F)(F)F)cc1OC (single isomer, unassigned); 81
CCn1nc(C(=O)NC[C@H]2CC[C@H](S(C)(=O)=O)CC2)c(Cl)c1-c1cnc(CC(C)(C)C(F)(F)F)cc1OC(F)F; 11
CCc1cc(C[C@@H](C)C(F)(F)F)ncc1-c1c(Cl)c(C(=O)NC[C@H]2CC[C@H](S(C)(=O)=O)CC2)nn1CC (relative stereo); 450
CCn1nc(C(=O)NC[C@]2(O)CC[C@@H](S(C)(=O)=O)CC2)c(Cl)c1-c1cnc(CC(C)(C)C(F)(F)F)cc1OC(F)F; 48
CCn1nc(C(=O)NC[C@H]2CC[C@H](S(C)(=O)=O)CC2)c(Cl)c1-c1cnc(CC(C)(C)C(F)F)cc1OC(F)F; 34
CCn1nc(C(=O)NC[C@]2(O)CC[C@@H](S(C)(=O)=O)CC2)c(C)c1-c1cnc(CC(C)(C)C(F)(F)F)cc1OC(F)F; 51

src = patent US11034658B2
